- System: 786-0 renal
- Method Description: NCI-60 one-dose screen, 48 h (100 = growth as untreated, 0 = no growth, -100 = all killed)
- Assay Conditions: 10 µM unless noted
This is part of a sample that, as a whole, favours compounds with a hit. Of some 83,000 tested, about 20% had one in any assay.
We use 80% as the dividing line for growth: on or above the line is YES, below is NO.

Known results for compounds:
Compound	Qualitative Label
Cl.Fc1c[c-]c(-c2ccccn2)c(F)c1.[Pt].c1ccc([PH+](C[PH+](c2ccccc2)c2ccccc2)c2ccccc2)cc1	NO
CCN(CC)CCOC(=O)N1c2ccccc2Sc2ccccc21	YES
C=C1C(=O)O[C@H]2[C@H]1CC/C(Cn1cc(CNCCc3c[nH]c4ccccc34)nn1)=C\CC[C@@]1(C)O[C@@H]21	YES

Query: Would you say N#Cc1c(N)nc2c(nnn2-c2cccc(Br)c2)c1N shows growth at minimum 80%?
Response: YES

Query: Would you say Nc1c(-c2nc3ccc(Br)cc3c(=O)[nH]2)nnn1-c1ccccc1 shows growth at minimum 80%?
Response: YES

Query: Would you say CCOC(=O)c1c2c(c(C)n1C)-c1nn(Cc3ccc(OC)cc3)cc1CC2 shows growth at minimum 80%?
Response: NO

Query: Would you say NC(N)=N/N=C(/c1ccccc1)c1ccccc1F shows growth at minimum 80%?
Response: NO

Query: Would you say CC1(C)N=C(N)N=C(N)N1c1cccc(CN)c1 shows growth at minimum 80%?
Response: YES

Query: Would you say COc1ccc(/C=C2\COc3ccc(O)cc3C2=O)cc1OC shows growth at minimum 80%?
Response: YES

Query: Would you say O=[N+]([O-])c1ccc(-c2cc3c(Nc4ccc(Cl)c(C(F)(F)F)c4)ncnc3s2)cc1 shows growth at minimum 80%?
Response: NO

Query: Would you say C[C@@H]1CC[C@@H]2[C@@H]1[C@H](OC(=O)/C=C/c1ccccc1)[C@]1(C3CCCCC3)C[C@@H](NC(=O)CO)[C@@]2(C)O1 shows growth at minimum 80%?
Response: YES

Query: Would you say O=C1N/C(=N/O)S/C1=C/c1cn(-c2ccccc2)nc1-c1ccccc1 shows growth at minimum 80%?
Response: YES

Query: Would you say C=C(C)[C@@H]1CC[C@]2(CN)CC[C@]3(C)[C@H](CC[C@@H]4[C@@]5(C)CCC(N)[C@@](C)(CO)[C@@H]5CC[C@]43C)[C@@H]12 (some centres not stated) shows growth at minimum 80%?
Response: NO

Query: Would you say CCN(CC)CCNc1ccc(C)c2sc3cc(C)ccc3c(=O)c12 shows growth at minimum 80%?
Response: NO

Query: Would you say CC(C)N(CCOC(=O)Nc1ccccc1Cl)C(C)C shows growth at minimum 80%?
Response: YES

Query: Would you say NC(=Nc1ccc(N)cc1)C(N)=Nc1ccc(N)cc1 shows growth at minimum 80%?
Response: YES

Query: Would you say CCNCCNc1cc(-c2ccc(C#N)cc2)c(C#N)c2nc3ccccc3n12 shows growth at minimum 80%?
Response: NO

* * *

- Tested on: HT29 colon
- Method Description: NCI-60 one-dose screen, 48 h
- Assay Conditions: 10 µM unless noted
The panel holds about 83,000 compounds, 20% with a hit somewhere; the sample as a whole holds those more often. Calls of active or inactive are those of the source. The calls were made as follows: active = growth percent below 10; inactive = the rest.
Tick one outcome: active, inactive

> print(dat)
                 compound  target.entity  qualitative.label
1  C=C(Cl)COC(=O)C(C)(C)O     HT29 colon           inactive

Query: What is the recorded call for this compound in the test? C=C1c2c(C)nn(-c3ccc(O)cc3)c2N(C)C23C[C@@H]1C1(C)c4c(C)nn(-c5ccc(O)cc5)c4N(C)C(C)(C[C@H]12)C3 (some centres undefined)
Response: inactive

Query: What is the recorded call for this compound in the test? CCCCn1c(=O)[nH]c(N)c(C(c2ccc(F)cc2)c2c(N)[nH]c(=O)n(CCCC)c2=O)c1=O
Response: inactive

Query: What is the recorded call for this compound in the test? C=CCO[C@H]1CO[C@H]2[C@@H]1OC[C@@H]2Oc1ccc(Nc2ccnc(Nc3ccc(O[C@H]4CO[C@H]5[C@@H]4OC[C@@H]5OCC=C)c(Cl)c3)n2)cc1Cl
Response: active
